Target: [Pyruvate dehydrogenase (acetyl-transferring)] kinase isozyme 1, mitochondrial (Homo sapiens)
Assay: Inhibition of PDK1 in human NCI-H1975 cells assessed as reduction in pyruvate dehydrogenase phosphorylation at 10 uM after 24 hrs by Western blot analysis
Assay type: cell-based
Activity calls are given as the source filed them. The calls are words filed in the database; no cut-off is given here.
assay_readout: inhibition

Examples with their reported inhibition follow.
[
  {
    "molecule": "O=C(c1ccc(OCCCBr)cc1)C(Cl)Cl",
    "inhibition": "Active"
  },
  {
    "molecule": "COc1ccc(C(=O)C(Cl)Cl)cc1Cl",
    "inhibition": "Active"
  },
  {
    "molecule": "CC(C)c1ccc(C(=O)C(Cl)Cl)cc1",
    "inhibition": "Active"
  },
  {
    "molecule": "CC1CCOc2ccc(C(=O)C(Cl)Cl)cc21 (centres undefined)",
    "inhibition": "Active"
  },
  {
    "molecule": "O=C(c1ccccc1)C(Cl)Cl",
    "inhibition": "Active"
  }
]

Prompt: Dear colleague, I am looking for the recorded inhibition of the following molecule: CCCCCOc1ccc(C(=O)C(Cl)Cl)cc1
Completion: Active

Prompt: Again, but for CCCCOc1ccc(C(=O)C(Cl)Cl)cc1
Completion: Active

Prompt: Again, but for O=C(c1ccc(-c2ccccc2)cc1)C(Cl)Cl
Completion: Active

Prompt: Again, but for CCCOc1ccc(C(=O)C(Cl)Cl)cc1
Completion: Active
